assayed target: PD-L1 on CHO cell line highly expressing PD-L1 (PD-1/PD-L1 blockade bioassay kit, promega J1250) (UniProt Q9NZQ7 19-290, limits assumed)
Sequence (Q9NZQ7 19-290 limits assumed): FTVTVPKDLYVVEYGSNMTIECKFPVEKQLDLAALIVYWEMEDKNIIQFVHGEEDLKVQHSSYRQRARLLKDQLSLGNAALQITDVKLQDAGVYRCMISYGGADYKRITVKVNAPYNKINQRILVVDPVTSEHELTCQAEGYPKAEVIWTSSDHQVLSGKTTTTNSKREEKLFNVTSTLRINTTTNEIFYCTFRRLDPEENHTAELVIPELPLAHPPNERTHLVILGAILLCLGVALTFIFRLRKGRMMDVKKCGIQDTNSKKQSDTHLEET
measurement notes: cell-based or functional assay
Average *EC50 [nM], PD-1/PD-L1 blockade bioassay values, listed per item
Note: unit nM is implicit; provide only the numeric part.

PD-L1-16E12 (WT/kappa) (antibody, V domains shown, also called PD-L1-16E12-Kappa) VH: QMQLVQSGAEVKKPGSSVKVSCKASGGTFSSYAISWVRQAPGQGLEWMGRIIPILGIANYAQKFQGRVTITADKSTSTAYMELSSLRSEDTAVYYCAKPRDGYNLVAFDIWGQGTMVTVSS VL: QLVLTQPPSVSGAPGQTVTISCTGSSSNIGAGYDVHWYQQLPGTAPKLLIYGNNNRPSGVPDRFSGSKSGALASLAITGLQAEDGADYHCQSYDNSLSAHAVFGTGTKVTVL | 0.47

Switching to the query record.
Exam item: Which Average *EC50 [nM], PD-1/PD-L1 blockade bioassay reading was recorded for the binder PDL1-16E12 (LS/4H8) (antibody, V domains shown, also called PD-L1-16E12-4H8) VH: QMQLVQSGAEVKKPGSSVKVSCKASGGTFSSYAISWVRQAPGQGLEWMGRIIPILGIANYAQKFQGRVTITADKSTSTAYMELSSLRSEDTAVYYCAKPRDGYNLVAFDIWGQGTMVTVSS VL: QLVLTQPSSVSGAPGQRVTISCTGSSSNIGAGYDVHWYQQLPGTAPKLLIYGNSNRPSGVPDRFSGSKSGTSASLAITGLQAEDEADYYCQSYDSSLSGSGVFGTGTKVTVL ?
Marked response: 0.36
